- test.target: T1, CD52 human leukocyte antigen (human, UniProt P31358 25-36)
- T1 construct: whole, on cells; also called CD52 antigen
- T1 chain (looked up): GQNDTSQTSSPS
- test.description: FACS on HUT-78 cells (CD52+), FITC anti-human IgG Fc, median fluorescence, 4-parameter fit; titre = 50% of maximum binding
readout.name: EC50 (µg/mL)
Hi! Could you send only the number? It should be in µg/mL, unit omitted.

{"columns": ["binder", "EC50, µg/mL"],
 "data": [
  ["DIVH1/DIVK2 (antibody, human IgG1, V domains shown, also called DIVHv1/DIVKv2) VH: EVQLLESGGGLVQPGGSLRLSCAGSGFTFTDFYMNWVRQAPGKGLEWVGFIRDKAKGYTTEYNPSVKGRFTISRDNSKNTLYLQMNSLRAEDTAVYYCAREGHTAAPFDYWGQGTLVTVSS VL: DIQMTQSPSSLSASVGDRVTITCKASQNIDKYLNWYQQKPGKAPKLLIYNTNNLQTGVPSRFSGSGSGTDFTLTISSLQPEDIATYYCLQHISRPRTFGTGTKLELK", 1.66]
]}

Entry DIVH3/DIVK5 (antibody, human IgG1, V domains shown, also called DIVHv3/DIVKv5) VH: EVKLQESGGGLVQPGGSMRISCSGSGFTFTDFYMNWIRQPPGKGPEWIGFIRDKAKGYTTEYNPSVKGRFTISRDNTQNTLHLQANTLRAEDTAVYYCAREGHTAAPFDYWGQGTTVTVSS VL: DIQMTQSPSSLSASVGDRVTITCKASQNIDKYLNWYQQKPGKSPKLLIYNTNNLQTGVPSRFSGSGSGTDFTLTISSLQPEDIATYYCLQHISRPRTFGTGTKLELK has what EC50?
3.3
